# System: BT-549
# PROTOCOL TEXT: NCI tumour cell line growth inhibition, 48 h
Activity calls are given as the source filed them. Rule as the data show it: active = GI50 up to about 1.1 µM and inactive = higher. Where a SMILES comes first, the peptide text is derived from it. [ ]: non-standard residue; d: D form. The star is where a group is joined. Bn2Val = CC(C)[C@@H](C(=O)*)N(Cc1ccccc1)Cc1ccccc1; NH(4-F-benzyl) = Fc1ccc(CN*)cc1; NMeV = CN[C@H](C(=O)O)C(C)C; dNMeA = CN[C@H](C)C(=O)O
Classes to choose from: active, inactive

Problem: Short answer needed: outcome of this test for COC(CN(C(C)=O)C1CCC2(SCCS2)c2[nH]c3ccccc3c21)OC (stereo not drawn) ?
Result: inactive

Problem: Check the results log: what was the call for CCN(CC)C1Oc2cc3c(cc2C(c2cccc(OC)c2OC)C1C)OCO3 (stereo not drawn) ?
Result: inactive

Problem: Which outcome was assigned to COc1ccc(CNC(=O)[C@H](Cc2ccc(O)cn2)NC(C)=O)cc1OC in this test?
Result: inactive

Problem: For COc1ccc(C(=O)/C=C/c2ccc(OCC#N)cc2)cc1 , which call appears in the assay record?
Result: inactive

Problem: Could you please tell me the result logged for O=c1[nH]c(=O)n([C@H]2C[C@H](O)[C@@H](CO)O2)cc1Br [BROXURIDINE] in this assay?
Result: inactive

Problem: Tell me the recorded outcome of this test for CC(C)C(Sc1nc(N)nc2nc[nH]c12)C(=O)O (stereo not drawn) .
Result: inactive

Problem: Field: outcome | Entry: CC(=O)O[C@H]1C[C@]2(O)[C@@H]3CC[C@@H]4C[C@@H](O)CC[C@]4(C)[C@H]3CC[C@]2(C)[C@H]1C1=CC(=O)OC1
Result: active

Problem: Which outcome was assigned to CC1=CCCC(C)(O)C2CC(CCC3(C)OC3CC1)C(C)C(=O)O2 (stereo not drawn) in this test?
Result: inactive

Problem: Please indicate how the test categorized O=C(O)CSc1ncccc1[N+](=O)[O-] .
Result: inactive

Problem: Entry CC[C@H]1C=CCC[C@@]2(C[C@@H]3CC[C@H]4[C@H](C(=O)OCCCCCCCCCCCCCCCC(=O)N(CCCN)C[C@@H](O)CCN)[C@]5(CCC[C@@H](C)O5)NC(=[N+]34)N2)O1 : call = ?
Result: inactive

Problem: For this compound, state the assay outcome: CC(C)[C@H](NC(=O)[C@H](C(C)C)N(Cc1ccccc1)Cc1ccccc1)C(=O)N(C)[C@H](C(=O)N1CCC[C@H]1C(=O)N(C)[C@H](C)C(=O)NCc1ccc(F)cc1)C(C)C (Bn2Val-V[NMeV]P[dNMeA]-{NH(4-F-benzyl)})
Result: inactive

Problem: Hello, I am checking results. What call was entered for Cc1c(O)c(OC2OC(CO)C(O)C(O)C2O)cc2c1C=C[C@@H]1[C@@]2(C)C(=O)C[C@]2(C)[C@@H]([C@@](C)(O)C(O)/C=C/C(C)(C)O)[C@H](O)C[C@@]12C (stereo partly drawn) ?
Result: inactive

Problem: # fetch the recorded call for COc1ccc(/C=C2\C[C@H]3[C@@H]4CC=C5C[C@@H](O)CC[C@]5(C)[C@H]4CC[C@]3(C)\C2=N\O)cc1 here
Result: inactive

Problem: Please indicate how the test categorized O=C(NCCCCl)c1c(O)c2ccccc2[nH]c1=O .
Result: inactive

Problem: Identify the outcome logged in this assay for the compound shown: Oc1ncnc2c1nnn2CCCCCCCCCCCCn1nnc2c(O)ncnc21
Result: inactive

Problem: Call for entry CC(C#N)Nc1ccc(Oc2ccc(C(C)(C)c3ccc(Oc4ccc(NC(C)C#N)cc4)cc3)cc2)cc1 (stereo not drawn) :
Result: inactive

Problem: Test call, this compound: O=C(CCc1ccccc1CO)NCCc1ccccc1
Result: inactive

Problem: Called result for C[C@H](N)C(=O)Nc1ccc(-c2nc3ccccc3s2)cc1
Result: inactive

Problem: Query: recorded result category for CCC1(CC)C(=O)N(C(=O)c2cc(OC)c(OC)c(OC)c2)N(C(=O)c2cc(OC)c(OC)c(OC)c2)C1=O in this test
Result: inactive

Problem: Assay result, entry Clc1ccc(-c2nc3cc(C45CC6CC(CC(C6)C4)C5)ccc3[nH]2)cc1 — outcome?
Result: inactive

Problem: I would be grateful if you could indicate the recorded call for CSc1ccc(/C=C2\N=C(c3ccccc3)N(c3nc4cc(Cl)c(F)cc4s3)C2=O)cc1 .
Result: inactive

Problem: Record request — test call for CC(=O)/C(=C\I)c1ccccc1
Result: inactive

Problem: Given N=c1oc2cc(O)ccc2cc1C(=O)NCc1ccccc1 , state the outcome it received in this test.
Result: inactive

* * *

Field: GI50. Provide a value for each of the compounds that follow.
# System: UACC-257
# PROTOCOL TEXT: NCI tumour cell line growth inhibition, 48 h
Activity calls are given as the source filed them. No stated cut-off is given here; in the data, active = GI50 up to about 1.1 µM and inactive = higher.

Problem: Query GI50 for C(/Cc1ccc2c(c1)OCO2)=N\N=C1NCCCCN1
Result: > 100 µM (inactive)

Problem: Entry O=S(=O)(O)C(Cc1nc2ccccc2[nH]1)S(=O)(=O)OCCC1S(=O)(=O)OCCOS1(=O)=O (stereo not given) needs its GI50 filled in; supply it.
Result: > 100 µM (inactive)

Problem: State, in one line, measured GI50 of C[C@H](N)C(=O)Nc1ccc(-c2nc3ccccc3s2)cc1
Result: 39.1 µM (inactive)

Problem: State its GI50 for this compound: Cc1ccc(S(=O)(=O)N/N=C2/CC3CCC4CC2CC34)cc1 (stereo not given)
Result: > 100 µM (inactive)

Problem: Supply reported GI50 belonging to this compound: Cc1ccc2n(c1)cc(-c1ccc(/C=N/NC(=N)N/N=C/c3ccc(-c4cn5cc(C)ccc5[n+]4C)cc3)cc1)[n+]2C
Result: 50.6 µM (inactive)

Problem: Supply measured GI50 of COc1ccc(CNC(=O)[C@H](Cc2ccc(O)cn2)NC(C)=O)cc1OC in your reply.
Result: > 100 µM (inactive)

Problem: Please give measured GI50 of the following entry: Cc1cccc2c1NC(c1c(C)[nH]c3ccccc13)C2 (stereo not given)
Result: > 100 µM (inactive)

Problem: Entry CCCCc1c2c(nc3c1CCc1cc4cc5c(nc4nc1-3)-c1nc3c(c(CCCC)c1CC5)CCCC3)CCCC2 needs its GI50 filled in; supply it.
Result: 59.8 µM (inactive)

Problem: Indicate its recorded GI50; the compound in question is C/C([O-])=C(/c1nc(-c2ccc([N+](=O)[O-])o2)no1)[n+]1cc(C)ccc1C
Result: 11.9 µM (inactive)

Problem: Give the value of GI50 reported for the following: CN(N=O)C(=O)NNC(=O)N(C)N=O
Result: > 100 µM (inactive)

* * *

# Test system: OVCAR-5
# PROTOCOL TEXT: NCI tumour cell line growth inhibition, 48 h
Active and inactive are the calls of the source. Rule as the data show it: active = GI50 up to about 1.1 µM and inactive = higher.
Reply using exactly one outcome from active, inactive

Problem: Outcome? Nc1nn(CC(O)CO)c(=O)s1 (stereo unspecified)
Result: inactive

Problem: Called result for Cc1nc(C)c(C(=O)NNC(N)=S)cc1C(=O)NNC(N)=S
Result: inactive

Problem: Dear all, I need the recorded test outcome for O=C(/C=C/c1ccc(O)cc1)c1cc(O)cc(O)c1 , thank you.
Result: inactive

Problem: Test call for this compound, please: Cc1ccccc1NC(=O)O/N=C(\Cl)C(C)C
Result: inactive

Problem: Hey, what did the test say about NS(=O)(=O)c1cc2c(cc1Cl)NC(/C(=N/NC(=O)c1ccncc1)C1C(=O)NC(=O)NC1=O)=NS2(=O)=O ?
Result: inactive

Problem: I would be grateful if you could indicate the recorded call for Cc1ccc(S(=O)(=O)c2c3nc4ccccc4nc3n3c2[nH]c2ccccc23)cc1 .
Result: inactive

Problem: Fill in: this test's call for CC(=O)NCCCCCCNC(C)=O [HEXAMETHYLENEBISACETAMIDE] is ___
Result: inactive

Problem: Which outcome was assigned to C=C(CN(C)C)C(=O)c1ccc(C(=O)C(=C)CN(C)C)cc1 in this test?
Result: inactive

Problem: How did this test come out for COc1ccc2c(ccc3c(COC(=O)NC(C)C)c(COC(=O)NC(C)C)n(C)c32)c1 ?
Result: inactive

Problem: Outcome logged for CCc1ccc2c(c1)/C(=C1/Nc3ccccc3C1=O)C(=O)N2 in this assay:
Result: inactive

Problem: Recorded test call requested for COCOc1ccc(C(=O)C(C)c2ccc(OCOC)cc2OCOC)c(O)c1 (stereo unspecified)
Result: inactive

Problem: Would you mind telling me which call this test gave O=Cc1cn(CCCCCCCCn2cc(C=O)c3ccccc32)c2ccccc12 ?
Result: inactive

Problem: Which outcome was entered for the compound O=C(O)Cc1c(-c2ccc([N+](=O)[O-])cc2)c(=O)oc2cc(O)ccc12 in this test?
Result: inactive

Problem: Please state the recorded outcome for this compound: CC(C)(C)c1cc(C2COC(c3cc(C(C)(C)C)c(O)c(C(C)(C)C)c3)CO2)cc(C(C)(C)C)c1O (stereo unspecified)
Result: inactive

Problem: Test call for this compound, please: CCOC(=O)c1nc2ccccc2nc1Oc1cc(OC)c(OC)c(OC)c1
Result: inactive

Problem: Status in this test for O=C(NC(c1ccccc1)C(O)C(=O)OCc1ccc2c(c1)C(=O)c1ccccc1C2=O)c1ccccc1 (stereo unspecified) ?
Result: inactive

Problem: Test call for this compound, please: Cc1nc(O)c(O)c(CN2CCCCC2)n1
Result: inactive

Problem: Outcome logged for CNC(=O)OCC1=C(COC(=O)NC)C(C)N(c2ccccc2)C1 (stereo unspecified) in this assay:
Result: inactive

Problem: Returns: the outcome recorded for CN(CCNCc1cn(C)c2c1ccc1ccccc12)CCNCc1cn(C)c2c1ccc1ccccc12 in this assay.
Result: inactive

Problem: Dear all, I need the recorded test outcome for COc1cc(C2c3cc4c(cc3[C@@H](Nc3cccc(C(C)=O)c3)C3COC(=O)[C@H]23)OCO4)cc(OC)c1O (stereo partly specified) , thank you.
Result: inactive

Problem: What outcome does the record of this test show for CCn1c2c(n(CC)c1=S)-c1c(n(CC)c(=S)n1CC)SSSS2 ?
Result: inactive

Problem: Please let me know the test result on file for O=C1C(Cl)C(c2cc3cc(Br)ccc3nc2Cl)N1c1ccc(Cl)cc1 (stereo unspecified) .
Result: inactive

Problem: Returns: the outcome recorded for N#CC(=N)c1ncn(CCO)c1NC(=O)C(F)(F)F in this assay.
Result: inactive

Problem: I'd appreciate the recorded outcome for CCOC(=O)C(C)(C)Oc1ccc(Cl)cc1 [CLOFIBRATE] from this test.
Result: inactive

Problem: Name the outcome recorded for COC(=O)c1cccc2cccc(C(=O)Nc3ccc(Cl)cc3)c12 in the assay.
Result: inactive

Problem: Which outcome did this test record for the compound CC1C[C@]2(C[C@@H](C)C(=O)O2)OC2CC3(C)C4CCC5C(C)(C)OC(=O)CC[C@@]56C[C@@]46CC[C@]3(C)C12 (stereo partly specified) ?
Result: inactive

Problem: Recorded call for CC1=C(C(=O)OC(C)C)C(c2ccccc2C(F)(F)F)C(C(=O)OC(CO[N+](=O)[O-])CO[N+](=O)[O-])=C(C)N1 (stereo unspecified) ?
Result: inactive

Problem: Called result for CCn1ncc2c1nc(-c1ccccc1)c[n+]2[O-]
Result: inactive

Problem: Recorded test outcome, item CCOc1cc(NC(C)=O)ccc1C(=O)NN1C(=O)C(Cl)C1c1ccco1 (stereo unspecified)
Result: inactive

Problem: Kindly provide the recorded test outcome for the following compound: CN(C)CCCSc1nc2ccccc2[nH]1
Result: inactive

Problem: GET /call?item= Cc1cc(C)c2c(-c3ccccc3)cc(=O)[nH]c2c1 returns the recorded outcome of this test.
Result: inactive

Problem: GET /call?item= CC[C@H]1C=CCC[C@@]2(C[C@@H]3CC[C@H]4[C@H](C(=O)OCCCCCCCCCCCCCCCC(=O)N(CCCN)C[C@@H](O)CCN)[C@]5(CCC[C@@H](C)O5)NC(=[N+]34)N2)O1 returns the recorded outcome of this test.
Result: active

Problem: Please let me know the test result on file for Cc1cccc(Nc2nc3ccccc3nc2NS(=O)(=O)c2ccccc2)c1 .
Result: inactive

Problem: Assay outcome for CCSC1(SCC)CCN(/C=N/C(C)(C)C)C1 : what was it?
Result: inactive

Problem: Just curious, what result did C#CC[C@@]12CC(=O)C[C@@H]1CCC1(C2)OCCO1.C#CC[C@]12CC(=O)CC[C@H]1CC(=O)C2 get here?
Result: inactive

Problem: Name the outcome recorded for O=P(O)(O)OP(=O)(O)O in the assay.
Result: inactive

Problem: Hey, what did the test say about CCSC1=N/C(=C\c2ccco2)C(Nc2ccc(C)cc2)=N1 ?
Result: inactive

Problem: Status in this test for NCCNC(=S)S ?
Result: inactive

Problem: What was the test verdict on CC(C)=CCc1cc(/C=C/C(=O)O)cc(CC=C(C)C)c1O [ARTEPILLIN] ?
Result: inactive

Problem: Kindly provide the recorded test outcome for the following compound: COC(=O)C12Oc3ccc(-c4ccc5c(c4O)C(=O)C4=CCC(C)C(O)C4(C(=O)OC)O5)c(O)c3C(=O)C1=CCC(C)C2O (stereo unspecified)
Result: inactive

Problem: // outcome(item) with item = O=NN(CCCl)C(=O)N[C@H]1CC[C@@H](C(=O)O)CC1
Result: inactive
